Each entry below lists one item and its recorded IC50 value.
Molecular target: CRBN (Homo sapiens)
Construct: expressed in transfected cells; host or cells: HEK293T
Test: Competition Assay: MAPPIT-like, competition with trimethoprim-lenalidomide hybrid ligand for binding to CRBN in HEK293T cells
Format: cell-based
Settings: protocol and reagents of Example 1; read-out: IC50 Competition
result-type: IC50 (µM)

compound="Nc1nccc(Nc2ccc3c(c2)CN(C2CCC(=O)NC2=O)C3=O)n1 (stereo not shown)" system_tested="CRBN (Homo sapiens)" result=2.06
compound="NC(=O)CNc1ccc2c(c1)C(=O)N(C1CCC(=O)NC1=O)C2 (stereo not shown)" system_tested="CRBN (Homo sapiens)" result=4.01
compound="O=C1CCC(N2Cc3ccc(C(F)(F)F)cc3C2=O)C(=O)N1 (stereo not shown)" system_tested="CRBN (Homo sapiens)" result=0.953
compound="Nc1cccc2nnn(C3CCC(=O)NC3=O)c(=O)c12 (stereo not shown)" system_tested="CRBN (Homo sapiens)" result=0.704
compound="CN(C)CC(=O)Nc1cccc2c1CN(C1CCC(=O)NC1=O)C2=O (stereo not shown)" system_tested="CRBN (Homo sapiens)" result=1.3
compound="O=C(O)CNc1cccc2c1C(=O)N(C1CCC(=O)NC1=O)C2 (stereo not shown)" system_tested="CRBN (Homo sapiens)" result=6.59
compound="O=C1CCC(N2C(=O)C3=C(C2=O)c2ccccc2CC3)C(=O)N1 (stereo not shown)" system_tested="CRBN (Homo sapiens)" result=2500
compound=O=C1c2c(F)c(F)c(F)c(F)c2C(=O)N1c1ccc(F)cc1F system_tested="CRBN (Homo sapiens)" result=16.1
compound="O=C1CCC(n2nnc3ccccc3c2=O)C(=O)N1 (stereo not shown)" system_tested="CRBN (Homo sapiens)" result=2.29
compound="O=C1CCC(N2C(=O)C3CCCCC3C2=O)C(=O)N1 (stereo not shown)" system_tested="CRBN (Homo sapiens)" result=17.7
compound="O=C1CCC(N2Cc3cccc(F)c3C2=O)C(=O)N1 (stereo not shown)" system_tested="CRBN (Homo sapiens)" result=0.248
compound="O=C1CCC(N2Cc3ccc(NC(=O)c4cnc5[nH]cnc5c4)cc3C2=O)C(=O)N1 (stereo not shown)" system_tested="CRBN (Homo sapiens)" result=7.99
compound="CC(C)(C)OC(=O)CC1c2ccccc2C(=O)N1C1CCC(=O)NC1=O (stereo not shown)" system_tested="CRBN (Homo sapiens)" result=5.77

###

Molecular target: CRBN (Homo sapiens)
Construct: expressed in transfected cells; host or cells: HEK293T
Test: Competition Assay: MAPPIT-like, competition with trimethoprim-lenalidomide hybrid ligand for binding to CRBN in HEK293T cells
Type: cell-based
Details: protocol and reagents of Example 1; read-out: IC50 Competition
pIC50: −log10 of the molar value.
// reported pIC50 per item
result-type: pIC50

compound="O=C1CCC(Nc2ncc3ccccc3n2)C(=O)N1 (stereo not shown)" result=5.20
compound="CN(Cc1cnn(C)c1)C(=O)CNc1ccc2c(c1)C(=O)N(C1CCC(=O)NC1=O)C2 (stereo not shown)" result=6.23
compound="CC1CN(C(=O)CNc2ccc3c(c2)C(=O)N(C2CCC(=O)NC2=O)C3)CCO1 (stereo not shown)" result=6.42
compound="Cc1ccc(NC(=O)NCc2ccc3c(c2)CN(C2CCC(=O)NC2=O)C3=O)cc1Cl (stereo not shown) [CC-885, reference compound]" result=9.33
compound="COc1cccc2c1C(=O)N(C1CCC(=O)NC1=O)C2 (stereo not shown)" result=6.52
compound="O=C1CCC(N2Cc3cc(Nc4ncnc5sccc45)ccc3C2=O)C(=O)N1 (stereo not shown)" result=7.96
compound="Cc1cccc2c1S(=O)(=O)N(C1CCC(=O)NC1=O)C2=O (stereo not shown)" result=4.83
compound="Cc1cc2[nH]cnc(Nc3ccc4c(c3)C(=O)N(C3CCC(=O)NC3=O)C4)c-2n1 (stereo not shown)" result=6.14
compound="O=C1CCC(N2Cc3ccc(NC(=O)c4ccc5ccccc5n4)cc3C2=O)C(=O)N1 (stereo not shown)" result=10.69
compound="CC(=O)NCC(=O)Nc1ccc2c(c1)C(=O)N(C1CCC(=O)NC1=O)C2 (stereo not shown)" result=5.50
compound="NC(=O)Nc1cccc2c1CN(C1CCC(=O)NC1=O)C2=O (stereo not shown)" result=5.05
compound="COc1ccc(C2c3ccccc3C(=O)N2C2CCC(=O)NC2=O)cc1 (stereo not shown)" result=5.09
compound="C=CCC1c2ccccc2C(=O)N1C1CCC(=O)NC1=O (stereo not shown)" result=4.98
